From: patent US20220142995A1

Here, each record is paired with measured pIC50 data.
target: DNA-PK (Homo sapiens, UniProt P78527); construct: purchased Invitrogen PR9107A; test: DNA-PK enzyme-linked immunosorbent assay; format: biochemical; settings: ATP 20 μM, GST-p53 substrate
pIC50: −log10 of the molar value. Structures can show the parent of a compound that is named as a salt.
MEASUREMENT_KIND: pIC50

[
  {
    "COMPOUND": "CN1C(=O)C2(CCC2)c2c1cnc1ccc(-c3cnc(N4CC(N(C)C)C4)c(NS(C)(=O)=O)c3)cc21 [Compound 574, hydrochloride]",
    "ASSAY_RESULT": 8.99
  },
  {
    "COMPOUND": "CC[C@H]1C[C@@]2(C1)C(=O)N(C)c1cnc3cc(F)c(-c4cnc(OCCNC(C)C)c(NS(C)(=O)=O)c4)cc3c12 [Compound 566]",
    "ASSAY_RESULT": 8.99
  },
  {
    "COMPOUND": "CC(C)NCCOc1ncc(-c2cc3c4c(cnc3cc2F)N(C)C(=O)C42CCC2)cc1NS(C)(=O)=O [Compound 569]",
    "ASSAY_RESULT": 9.20
  },
  {
    "COMPOUND": "CCS(=O)(=O)Nc1cc(-c2cc3c4c(cnc3cc2F)N(C)C(=O)C42CCC2)cnc1OCCNC(C)C [Compound 570]",
    "ASSAY_RESULT": 9.20
  },
  {
    "COMPOUND": "CC(C)NCCOc1ncc(-c2cc3c(cc2F)ncc2c3[C@]3(C[C@@H](OCc4ccccc4)C3)C(=O)N2C)cc1NS(C)(=O)=O [Compound 567]",
    "ASSAY_RESULT": 8.57
  }
]
